These entries and their values trace back to ChEMBL document CHEMBL6071129.

Experiment: Antiproliferative activity against human 92.1 cells incubated for 72 hrs by CCK8 assay
Format: functional, cell-based
Conditions: 92-1, 72 h
value-kind: IC50 (µM)
API: value field is a number in µM; no unit string.

Query CN1CCCC1CN1CCn2cc(-c3ccccc3)nc2[C@@H]1CC1CCCCC1 (stereo partly specified) yields IC50 of 10.4

###

Test system: ASPC1
Assay: Antiproliferative activity against human ASPC1 cells incubated for 48 hrs by MTT assay
Type: functional, cell-based
Conditions: ASPC1, 48 h
pIC50: −log10 of the molar value.
value-kind: pIC50

Query "COc1ccc(C(=O)O[C@H]2C=COC=C3[C@@H](O)[C@]45S[C@@H](C(=O)N4[C@@H]32)N(C)C5=O)cc1Oc1cc(C=O)ccc1O" yields pIC50 of > 5.70

###

Experiment: Antiproliferative activity against human MP41 cells incubated for 72 hrs by CCK8 assay
Type: functional, cell-based
Conditions: MP41, 72 h
value-kind: IC50 (µM)
API: value field is a number in µM; no unit string.

Query CN1CCCC1CN1CCn2cc(-c3ccccc3)nc2[C@@H]1CC1CCCCC1 (stereo partly specified) yields IC50 of 5.1

###

Experiment: Inhibition of TAZ expressed in HEK293 cells incubated for 24 hrs by dual luciferase reporter assay
Assay type: cell-based
Settings: Homo sapiens, HEK293, 24 h
pIC50: −log10 of the molar value.
value-kind: pIC50

Query "CC(C)[C@H](C(=O)Nc1ccc(C(=O)NO)cc1)c1ccccc1" yields pIC50 of > 6.52
